B1: 2M8U (parent)
chain: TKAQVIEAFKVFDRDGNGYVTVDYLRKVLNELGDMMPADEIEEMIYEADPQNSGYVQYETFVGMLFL

Variants of: B1
Assay: folding stability dG (cDNA display proteolysis); higher = more stable
Settings: PBS, room temperature
READOUT_NAME: folding stability dG (kcal/mol)
Reply with just the number (in kcal/mol).

{"VARIANT_NOTATION": "F12N", "VAL": 3.06}
{"VARIANT_NOTATION": "F12K", "VAL": 2.54}

For the next question, use this variant.
Value of measured folding stability dG for the entry E42T : 3.41
